Provenance of the data: ChEMBL document CHEMBL1201862

Test system: HCT-15
reported_metric: GI50

Q: Request - read-out GI50 | tested on HCT-15 | compound O=C1C=C(NCCc2ccc(O)cc2)C(=O)C=C1NCCc1ccc(O)cc1
A: > 100 µM

Q: Request - read-out GI50 | tested on HCT-15 | compound NC(=O)ON=C1CCN(Cc2ccccc2)CC1
A: > 100 µM

Q: Request - read-out GI50 | tested on HCT-15 | compound CCOC(=O)Oc1cc2c(ccn2C)c2c1c1ccccc1n2C(=O)OCC
A: > 100 µM

Q: Request - read-out GI50 | tested on HCT-15 | compound CCC(C)C(=O)OC1C(=O)OC2CC3C(C)=CC(=O)C(O)C3(C)C3C4(O)OCC23C1C(C)C4O (configuration not stated)
A: < 0.0185 µM

Q: Request - read-out GI50 | tested on HCT-15 | compound CC1(C)CC(=O)C(=[N+]=[N-])C(=O)C1
A: > 100 µM

Q: Request - read-out GI50 | tested on HCT-15 | compound C[C@]12CCC(O)CC1=CC[C@@H]1[C@@H]2CC[C@]2(C)C(=O)[C@H](n3ccnc3)C[C@@H]12 (some centres not stated)
A: > 100 µM

Q: Request - read-out GI50 | tested on HCT-15 | compound NC(CCC(=O)NC(CSSCCCCS(=O)O)C(=O)NCC(=O)O)C(=O)O (configuration not stated)
A: > 100 µM

Q: Request - read-out GI50 | tested on HCT-15 | compound Nc1nc(N)c(NC(=O)CCCO)c(=O)[nH]1
A: > 100 µM

Q: Request - read-out GI50 | tested on HCT-15 | compound C=CCc1c(O)c2ccccc2[nH]c1=O
A: > 100 µM

Q: Request - read-out GI50 | tested on HCT-15 | compound Cc1sc2nc(-c3ccc([N+](=O)[O-])cc3)c(/C=N/N=C(N)N)n2c1C
A: 1.35 µM

Q: Request - read-out GI50 | tested on HCT-15 | compound COCc1nc2c(OC)c(-c3nc4ccc(N5CCN(C)CC5)nc4[nH]3)cc(OC)c2[nH]1
A: 38.1 µM

###

Tested on: SF-539
Assay: NCI tumour cell line growth inhibition, 48 h
Activity calls are given as the source filed them. Cut-off read from the data, not from the text of the source: active = GI50 up to about 1.1 µM and inactive = higher.
# output must be one of TRUE = active, FALSE = inactive

CN(C)CCCSc1nc2c(c(=N)n1-c1ccccc1)c(=S)n(-c1ccccc1)c(=S)n2-c1ccccc1; FALSE
CCOC(=O)C(C)(C)Oc1ccc2c(=O)cc(-c3ccccc3)oc2c1; FALSE
Cn1c(=O)n2c(=O)n(C)c(=O)n2c1=O; FALSE
COc1ccc(CCC2c3cc(OC)c(OC)cc3CCN2C)cc1OC (stereo unspecified); FALSE
COc1ccc(Nc2nc3ccccc3nc2-c2cccs2)cc1OC; FALSE

Q: Record request — test call for CC(C)OP(=O)(OC(C)C)/C(C#N)=C/c1c[nH]c2ccccc12
A: FALSE

Q: Record request — test call for COCC(O)Cn1ccnc1[N+](=O)[O-] (stereo unspecified)
A: FALSE

Q: Record request — test call for COc1ccccc1NC(=O)C1=C(C)NC(C)=C(C(=O)Nc2ccccc2OC)C1c1ccccc1OC
A: FALSE

###

System: ACHN
Assay: NCI tumour cell line growth inhibition, 48 h
Active and inactive are the calls of the source. Rule as the data show it: active = GI50 up to about 1.1 µM and inactive = higher.
# output must be one of class 1 = active, class 0 = inactive

CC1C2(C)OC(=N)C(C#N)(C(c3ccccc3)O2)C1(C#N)C#N (configuration not stated); class 0

Q: Record request — test call for COC1(OC)CCCCC2c3cccc(OC(C)=O)c3C21OC(C)=O (configuration not stated)
A: class 0

Q: Record request — test call for C[N+](C)(CCCCCC[N+](C)(C)CCCN1C(=O)c2cccc3cccc(c23)C1=O)CCCN1C(=O)c2cccc3cccc(c23)C1=O
A: class 0

Q: Record request — test call for Cn1nc2c(c1N)Cc1c(nn(C)c1N)-c1ccccc1-2
A: class 0

Q: Record request — test call for CCC(C)C(=O)OC1C(=O)OC2CC3C(C)=CC(=O)C(O)C3(C)C3C4(O)OCC23C1C(C)C4O (configuration not stated)
A: class 1

Q: Record request — test call for Cc1ccc(C(=O)Oc2ccc(/C=C3\CCC/C(=C\c4ccc(OC(=O)c5ccc(C)cc5)cc4)C3=O)cc2)cc1
A: class 0

Q: Record request — test call for CC1Oc2cc3c(-c4c(O)cc(O)c5c(O)c6c(cc45)OC(C)C(C)C6=O)c(O)cc(O)c3c(O)c2C(=O)C1C (configuration not stated)
A: class 1
